# procedure-details: Equilibrium solubility of vitamin A in supercritical CO2 (static cell, UV-VIS)
# Type: physicochemical
# experimental-context: SC-CO2, 323 K, 135 bar
readout-type: Mole fraction

1) CC1=C(/C=C/C(C)=C/C=C/C(C)=C/CO)C(C)(C)CCC1 : 5.24e-05

----------
# procedure-details: Equilibrium solubility of vitamin A in supercritical CO2 (static cell, UV-VIS)
# Assay type: physicochemical
# experimental-context: SC-CO2, 313 K, 140 bar
readout-type: Mole fraction

1) CC1=C(/C=C/C(C)=C/C=C/C(C)=C/CO)C(C)(C)CCC1 : 5.25e-05

----------
# procedure-details: Equilibrium solubility of vitamin A in supercritical CO2 (static cell, UV-VIS)
# Format: physicochemical
# experimental-context: SC-CO2, 303 K, 130 bar
readout-type: Mole fraction

1) CC1=C(/C=C/C(C)=C/C=C/C(C)=C/CO)C(C)(C)CCC1 [vitamin A, Retinol] : 3.58e-05

----------
# procedure-details: Equilibrium solubility of vitamin A in supercritical CO2 (static cell, UV-VIS)
# Type: physicochemical
# experimental-context: SC-CO2, 313 K, 120 bar
readout-type: Mole fraction

1. CC1=C(/C=C/C(C)=C/C=C/C(C)=C/CO)C(C)(C)CCC1 : 3.62e-05

----------
# procedure-details: Equilibrium solubility of vitamin A in supercritical CO2 (static cell, UV-VIS)
# Type: physicochemical
# experimental-context: SC-CO2, 313 K, 170 bar
# Method: Figure 1 indicates the system used for measuring the equilibrium solubility. […] Consequently, the gas was liquefied through dropping the temperature to − 20 °C so that it was prepared for pumping function by means of pressure controlling instruments (TEBCO, Iran) with an uncertainty of ± 0.1 MPa. After CO2 pumped into the inlet solvent stream, the methanol tank (as a co-solvent in this section) and modulator valve controlled the solvent concentration. […]
readout-type: Mole fraction

1) CC1=C(/C=C/C(C)=C/C=C/C(C)=C/CO)C(C)(C)CCC1 : 8.13e-05

----------
# procedure-details: Equilibrium solubility of vitamin A in supercritical CO2 (static cell, UV-VIS)
# Assay type: physicochemical
# experimental-context: SC-CO2, 303 K, 90 bar
readout-type: Mole fraction

1. CC1=C(/C=C/C(C)=C/C=C/C(C)=C/CO)C(C)(C)CCC1 : 2.18e-05

----------
# procedure-details: Equilibrium solubility of vitamin A in supercritical CO2 (static cell, UV-VIS)
# Type: physicochemical
# experimental-context: SC-CO2, 303 K, 245 bar
readout-type: Mole fraction

1. CC1=C(/C=C/C(C)=C/C=C/C(C)=C/CO)C(C)(C)CCC1 : 8.32e-05

----------
# procedure-details: Equilibrium solubility of vitamin A in supercritical CO2 (static cell, UV-VIS)
# Format: physicochemical
# experimental-context: SC-CO2, 303 K, 230 bar
readout-type: Mole fraction

1. CC1=C(/C=C/C(C)=C/C=C/C(C)=C/CO)C(C)(C)CCC1 : 8.19e-05

----------
# procedure-details: Equilibrium solubility of vitamin A in supercritical CO2 (static cell, UV-VIS)
# Assay type: physicochemical
# experimental-context: SC-CO2, 323 K, 110 bar
readout-type: Mole fraction

1. CC1=C(/C=C/C(C)=C/C=C/C(C)=C/CO)C(C)(C)CCC1 [vitamin A, Retinol] : 2.68e-05

----------
# procedure-details: Equilibrium solubility of vitamin A in supercritical CO2 (static cell, UV-VIS)
# Assay type: physicochemical
# experimental-context: SC-CO2, 303 K, 185 bar
readout-type: Mole fraction

1. CC1=C(/C=C/C(C)=C/C=C/C(C)=C/CO)C(C)(C)CCC1 : 6.25e-05
